- Tested on: GC3/MTK-
- test_description: Inhibition of cellular growth by the MTT colorimetric assay in GC3/M TK-, a human thymidine kinase deficient adenocarcinoma line
Record form. Attribute: IC50. Fill in for each entry.
Answers are plain numbers, in µM.

1) CC(C)N(Cc1ccc(S(=O)(=O)N2CCNCC2)cc1)c1ccc2c3c(cccc13)C(=O)N2 = 5.9
2) CNC1=Nc2ccc(N(C)Cc3ccc(S(=O)(=O)c4ccc(OC)cc4)cc3)c3c(C)ccc1c23 = 1.5
3) O=C1Nc2ccc(N(CCCO)Cc3ccc(S(=O)(=O)N4CCNCC4)cc3)c3cccc1c23 = 30
4) COc1ccc(S(=O)(=O)c2ccc(CN(C)c3ccc4c5c(cccc35)C(=O)N4)cc2)cc1 = 10

Here's the next entry for you.
Given `Cc1ccc2c3c(ccc(N(C)Cc4ccc(S(=O)(=O)N5CCOCC5)cc4)c13)N=C2N` , state its recorded IC50.
0.44

Where do the numbers come from? From ChEMBL document CHEMBL1125372.
